quantity: melting point

# example entries with known answers
compound | melting point
CCNC(=O)c1cc(Oc2ccc(NC(=O)Nc3ccc(Cl)c(C(F)(F)F)c3)cc2)ccn1 [Entry 51] | 187 to 189 °C
CNC(=O)c1cc(Oc2ccc(NC(=O)Nc3cc(C(F)(F)F)ccc3OC)cc2Cl)ccn1 [Entry 20] | 214 to 216 °C
CNC(=O)c1cc(Oc2ccc(NC(=O)Nc3ccc(Br)c(C(F)(F)F)c3)cc2Cl)ccn1 [Entry 87] | 217 to 219 °C

Please fill in: melting point reported for CNC(=O)c1cc(Oc2ccc(NC(=O)Nc3cc(C(F)(F)F)c(Cl)cc3OC)c(Cl)c2)ccn1 [Entry 96] = 244 to 245 °C

Please fill in: melting point reported for CNC(=O)c1cc(Oc2ccc(NC(=O)Nc3ccc(Cl)c(C(F)(F)F)c3)c(Cl)c2)ccn1 [Entry 49] = 147 to 151 °C

Please fill in: melting point reported for CNC(=O)c1cc(Oc2ccc(NC(=O)Nc3cc(C(F)(F)F)ccc3OC)c(Cl)c2)ccn1 [Entry 17] = 187 to 188 °C

* * *

quantity: melting point

molecule | observed_measurement
CNC(=O)c1cc(Oc2ccc(NC(=O)Nc3cc(C(F)(F)F)c(Cl)cc3OC)cc2Cl)ccn1 [Entry 97] | 220 to 221 °C

Please fill in: melting point reported for CCNC(=O)c1cc(Oc2ccc(NC(=O)Nc3cc(C(F)(F)F)c(Cl)cc3OC)cc2)ccn1 [Entry 99] = 180 to 181 °C

Please fill in: melting point reported for CCNC(=O)c1cc(Oc2ccc(NC(=O)Nc3ccc(Br)c(C(F)(F)F)c3)cc2)ccn1 [Entry 88] = 183 to 184 °C

Please fill in: melting point reported for COc1ccc(C(F)(F)F)cc1NC(=O)Nc1ccc(Oc2ccnc(C(N)=O)c2)cc1 [Entry 14] = 114 to 117 °C

* * *

quantity: melting point

chem_smiles | observed_measurement
CNC(=O)c1cc(Oc2ccc(NC(=O)Nc3cc(C(F)(F)F)ccc3OC)c(C)c2)ccn1 | 210 to 213 °C

Please fill in: melting point reported for CNC(=O)c1cc(Oc2ccc(NC(=O)Nc3cc(C(F)(F)F)c(Cl)cc3OC)cc2)ccn1 = 140 to 144 °C

Please fill in: melting point reported for CCNC(=O)c1cc(Oc2ccc(NC(=O)Nc3cc(C(F)(F)F)ccc3OC)cc2)ccn1 = 194 to 196 °C

Please fill in: melting point reported for CNC(=O)c1cc(Sc2ccc(NC(=O)Nc3cc(C(F)(F)F)ccc3OC)cc2)ccn1 = 218 to 219 °C
